The measured values listed here are drawn from PubChem BioAssay (NCI).

# METHOD DESCRIPTION: NCI Yeast Anticancer Drug Screen. Data for the rad50 strain (AID 155);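 further: 0% = growth of vehicle-only cultures of the same strain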
# COND: S. cerevisiae rad50 strain growth inhibition; at 1.2 µM; stronger effect = higher value
About 79,000 compounds went through this panel and 15% of them were active in at least one assay; those are over-represented in the sample as a whole.
MEASURED PROPERTY: growth inhibition (%)
Output spec: scalar in %, unitless text.

O=C(Cc1ccccc1)NNc1nc(NNC(=O)c2ccncc2)nc(Nc2ccc(Cl)cc2)n1
-1
COc1ccc(/C=C2\SC(=S)N(/C=C3\C(=O)N(c4ccccc4)N=C3C)C2=O)cc1OC
-5
CC(CN(C)C)C(=O)/C=C/c1ccc(Cl)c(Cl)c1 (stereo not given)
0
CCC(/C=C/c1ccccc1)=N\Nc1ccc(Cl)c(Cl)c1
26
Cc1ccc(NC(Nc2ccc(C)cc2C)=C(C(Cl)=C(Cl)Cl)[N+](=O)[O-])c(C)c1
1
CC(C)(C)c1ccc2c(c1)C(=O)c1ccccc1C2=O
-17

What measured growth inhibition goes with O=C1c2cccc3cccc(c23)C(=O)N1CCNCCN1C(=O)c2cccc3cccc(c23)C1=O ? 1

What measured growth inhibition goes with [N-]=[N+]=NC1(c2ccccc2)C(=O)Nc2ccccc2C1=O (stereo not given) ? -4

What measured growth inhibition goes with COc1ccc2cc(C(C)C(=O)N3CCOC3=O)ccc2c1 (stereo not given) ? 21

What measured growth inhibition goes with CCCCCCCCN1COCC(COc2ccccc2C)OC1 (stereo not given) ? -2

---

# METHOD DESCRIPTION: NCI Yeast Anticancer Drug Screen. Data for the wt2 strain (AID 169);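 further: 0% = growth of vehicle-treated yeast cultures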
# COND: S. cerevisiae wt2 strain growth inhibition; at 33.0 µM; stronger effect = higher value
This is part of a sample that, as a whole, favours compounds with a hit. Of some 79,000 tested, about 15% had one in any assay.
Everything with growth inhibition lower than 80% is F; everything else, including exactly 80%, is T.

Does the reported growth inhibition for CCN(CC)CCNc1ccc(C)c2sc3ccc(O)cc3c(=O)c12 fall at or above the 80% mark? T

Does the reported growth inhibition for O=C1NC(c2cccc(OCc3ccccc3)c2)Nc2ccccc21 (stereo unspecified) fall at or above the 80% mark? F

Does the reported growth inhibition for CCCCN(CCCC)c1ccc(N=Nc2ccc(S(=O)(=O)O)cc2)cc1 fall at or above the 80% mark? T

Does the reported growth inhibition for Nc1ccc2c(c1)C(=O)c1c(F)cccc1-2 fall at or above the 80% mark? F

Does the reported growth inhibition for O=C(/C(=C/c1ccc(O)cc1)c1ccccc1)c1ccccc1 fall at or above the 80% mark? T

---

# METHOD DESCRIPTION: NCI Yeast Anticancer Drug Screen. Data for the mlh1 strain (AID 171);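 further: 0% = growth of vehicle-treated control cultures of the same strain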
# COND: S. cerevisiae mlh1 strain growth inhibition; at 33.0 µM
Compounds without any hit were thinned out: in the full panel of roughly 79,000, 15% have a hit. Calls of active or inactive are those of the source. No stated cut-off is given here; in the data, active means growth inhibition above about 70%; inactive means the rest.
Permitted responses: active, inactive

OC1(C#CI)CCCCC1
active
CCCCOc1ccc2nc(C)cc(N=[N+]=[N-])c2c1
inactive

Dear colleague, could you share the recorded outcome for O=C1CC(C(O)(C(F)(F)F)C(F)(F)Cl)CCC1C(O)(C(F)(F)F)C(F)(F)Cl (stereo unspecified) when you have a moment? active

Dear colleague, could you share the recorded outcome for O=NC1c2cccc3cccc(c23)C1N=O (stereo unspecified) when you have a moment? active

Dear colleague, could you share the recorded outcome for N#CCCC1C(C#N)C2(Cl)CC1(Cl)C(Cl)=C2Cl (stereo unspecified) when you have a moment? inactive

Dear colleague, could you share the recorded outcome for NC(N)=NC(N)=Nc1ccccc1 (tested in a mixture with another compound) when you have a moment? inactive

---

# METHOD DESCRIPTION: NCI Yeast Anticancer Drug Screen. Data for the wt2 strain (AID 169);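 further: 0% = growth of vehicle-treated yeast cultures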
# COND: S. cerevisiae wt2 strain growth inhibition; at 33.0 µM; stronger effect = higher value
About 79,000 compounds went through this panel and 15% of them were active in at least one assay; those are over-represented in the sample as a whole.
MEASURED PROPERTY: growth inhibition (%)
Output spec: scalar in %, unitless text.

Nc1cccc(-c2cc[cH-]c2)c1.[Fe+2].c1cc[cH-]c1
3

What measured growth inhibition goes with Cn1c(-c2ccc(/C=N\N3CCN(/N=C/c4ccc(-c5c[n+]6ccsc6n5C)cc4)CC3)cc2)c[n+]2ccsc12 ? 0

What measured growth inhibition goes with Cc1nc2sc3c(c2c(=O)o1)CCCC3 ? 3

What measured growth inhibition goes with CC/C(=C(\c1ccccc1)c1ccc(OCC[N+](C)(C)C)cc1)c1ccccc1 ? 99

What measured growth inhibition goes with O=C1c2cccc3cccc(c23)C(=O)N1O ? 98

What measured growth inhibition goes with O=C(CN(c1ccccc1)c1ccccc1)n1nnc2ccccc21 ? 6

What measured growth inhibition goes with Cc1cccc(C)c1NC(=O)CCC(=O)C(C)C(=O)c1ccc(O)cc1 (stereo unspecified) ? 0

What measured growth inhibition goes with CN(CCOc1ccc(Cl)cc1)CCOc1ccc(Cl)cc1 ? 89

What measured growth inhibition goes with Cc1cccc2c1C1c3c(C)cccc3C(CC(=O)O)CC1CC2 (stereo unspecified) ? 96

What measured growth inhibition goes with Cc1cccc2c(NCCCN(C)C)c3c([N+](=O)[O-])ccc(C)c3nc12 ? 95

What measured growth inhibition goes with O=[N+]([O-])c1cn[n+]([O-])c2ccccc12 ? 100

---

This listing pairs compounds with measured growth inhibition.
# METHOD DESCRIPTION: NCI Yeast Anticancer Drug Screen. Data for the rad50 strain (AID 155);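 further: 0% = growth of vehicle-only cultures of the same strain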
# COND: S. cerevisiae rad50 strain growth inhibition; at 1.2 µM; stronger effect = higher value
This is part of a sample that, as a whole, favours compounds with a hit. Of some 79,000 tested, about 15% had one in any assay.
Output spec: scalar in %, unitless text.

What measured growth inhibition goes with COC1/C=C\C=C(/C)C(=O)NC2=CC(=O)C(=O)C(=C2O)CC(C)CC(OC)C(O)C(C)/C=C(\C)C1OC(N)=O (stereo unspecified) ? 17

What measured growth inhibition goes with NC(CCCCCCCCCCCCC(N)C(=O)c1ccccc1)C(=O)c1ccccc1 (stereo unspecified) ? -3

What measured growth inhibition goes with CCCCS/C(=C(/C#N)C(N)=O)c1cc2c([nH]1)CCCC2 ? 25

What measured growth inhibition goes with O=C1SS(=O)c2ccccc21 (stereo unspecified) ? 5

What measured growth inhibition goes with CC(=O)O[C@H]1CC[C@@]2(C)C(=CC[C@@H]3C2CC[C@]2(C)C(=O)NC(=O)CC32)C1 (stereo partly specified) ? -31

What measured growth inhibition goes with CC(C)Cc1ncc(CCCN=C(N)N)[nH]c1=O ? -14

What measured growth inhibition goes with CO[C@@]1([C@@H](Cl)c2ccccc2)C(=O)N(C)/C(=C\c2ccccc2)C(=O)N1C ? 2

What measured growth inhibition goes with CSC(=S)N/N=C/c1ccccc1 ? 28

---

This listing pairs molecules with measured growth inhibition.
# METHOD DESCRIPTION: NCI Yeast Anticancer Drug Screen. Data for the rad52 strain (AID 147);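 further: 0% = growth of vehicle-treated control cultures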
# COND: S. cerevisiae rad52 mutant growth inhibition; at 33.0 µM; stronger effect = higher value
The panel holds about 79,000 compounds, 15% with a hit somewhere; the sample as a whole holds those more often.
Output spec: scalar in %, unitless text.

The examples below pair each entry with its known result.
CC1(c2ccccc2)O[C@@H]2C[C@H]3[C@@H]4CCC5=CC(=O)C=C[C@]5(C)[C@@]4(F)[C@@H](O)C[C@]3(C)[C@]2(C(=O)CO)O1 (stereo not given in full)
62
O=C(Nc1ccc(Cl)cc1)c1cc2cc(N=Nc3ccccc3Cl)ccc2oc1=O
89
COC(=O)c1ccccc1N=NNc1cccc(SC)c1
89
O=C(Cc1ccccc1)NNc1nc(NNC(=O)c2ccncc2)nc(Nc2ccc(Cl)cc2)n1
14
CC(C)(C)c1ccc2c(c1)C(=O)c1ccccc1C2=O
-6
OC(Cc1cccc2ccccc12)CN1CCC(c2ccccc2)CC1 (stereo not given)
91

What measured growth inhibition goes with CN(C)CCCn1c2c3ccccc3ccc2c2oc(=O)c3ccccc3c21 ? 97

What measured growth inhibition goes with CCN(CC)CCNc1ccc2ncn3c4ccc(O)cc4c(=O)c1c23 ? 75

What measured growth inhibition goes with OB(O)c1ccccc1C#Cc1ccccc1 ? 21

What measured growth inhibition goes with Cc1cccc2c(NCCCN(C)C)c3c([N+](=O)[O-])ccc(C)c3nc12 ? 97

---

This listing pairs compounds with measured growth inhibition.
# METHOD DESCRIPTION: NCI Yeast Anticancer Drug Screen. Data for the rad50 strain (AID 155);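 further: 0% = growth of vehicle-only cultures of the same strain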
# COND: S. cerevisiae rad50 strain growth inhibition; at 5.0 µM (retest, dose inferred, filed as 0.5); stronger effect = higher value
Compounds without any hit were thinned out: in the full panel of roughly 79,000, 15% have a hit.
Output spec: scalar in %, unitless text.

O=[N+]([O-])c1ccc(S(=O)(=O)Cc2ccccc2)c([N+](=O)[O-])c1
65

What measured growth inhibition goes with CCCCCCCC/C=C\CCCCCCCCN ? 30

What measured growth inhibition goes with O=c1c2ccccc2nc(-c2ccc(Cl)cc2)n1O ? 28

What measured growth inhibition goes with O=C1c2ccccc2C(=O)c2sc(Nc3ccccc3Cl)nc21 ? 87
